- System: BDF1 mice, intracerebral B16 melanoma, median survival T/C
- Assay Info: NCI In Vivo Anticancer Drug Screen. Data for tumor model B16 Melanoma (intracerebral) in B6D2F1 (BDF1) mice
- Stated Conditions: endpoint: median survival time; dose: 25.0 mg/kg/injection; schedule: Q01DX009 (ip); vehicle: saline
Inconclusive results and toxic doses are left out. The calls were made as follows: active = survival T/C of 150% or more; inactive = T/C below 125% in these data.
Pick one and only one: Y for active, N for inactive

{"columns": ["Molecule", "Classification"],
 "data": [
  ["CNNCc1ccc(C(=O)NC(C)C)cc1", "N"],
  ["O=C1C=CN(C2OC(CO)C(O)C2O)C(=O)C1 (centres undefined)", "N"],
  ["OC(CBr)C(O)C(O)C(O)CBr (centres undefined)", "N"]
]}

Exam item: Tell me the recorded outcome of this test for "CN(N=O)C(N)=O" .
Marked response: Y

Origin of the recorded values: PubChem BioAssay AID196
